Provide the recorded pIC50 for the entries that follow.
# Tested on: K562 cells
# method-summary: Proliferation, K562
# Assay type: cell-based, human
# experimental-setup: Homo sapiens, K562; Table S1 screening; read-out: IC50 (cell proliferation inhibition in K562 cells)
# Description: Cells were inoculated onto 96-well plates and treated with compounds in serial dilutions for 3 or 5 days. […] The optical density (OD) values were obtained using a SPARK microplate reader (Tecan). IC50 was calculated using GraphPad Prism 8.0.2 (nonlinear regression analysis with four parameters). Drug synergy was evaluated with combination index (CI) values using CalcuSyn Demo Version 2.0 software. […]
Answers are plain numbers, as −log10 of the molar value.

Worked cases, answers included:
INSERT INTO assay_data (compound, measured_number) VALUES
  ('COc1cc2nc(C)nc(N[C@H](C)c3cc(N)cc(C(F)(F)F)c3)c2cc1O[C@H]1CCN(C(=O)CCCCSc2cccc3c2CN(C2CCC(=O)NC2=O)C3=O)C1 (some centres unmarked) [SIAIS561086]', 5.11),
  ('COc1cc2nc(C)nc(N[C@H](C)c3cc(N)cc(C(F)(F)F)c3)c2cc1OC1CCN(C(=O)CCCCCCSc2cccc3c2CN(C2CCC(=O)NC2=O)C3=O)CC1 (some centres unmarked) [SIAIS561136]', 5.60),
  ('COc1cc2nc(C)nc(N[C@H](C)c3cc(N)cc(C(F)(F)F)c3)c2cc1OC1CCN(C(=O)CCCCCCCSc2cccc3c2CN(C2CCC(=O)NC2=O)C3=O)CC1 (some centres unmarked) [SIAIS561139]', 5.56),
  ('COc1cc2nc(C)nc(N[C@H](C)c3cc(N)cc(C(F)(F)F)c3)c2cc1OC1CCN(C(=O)CCCSc2cccc3c2CN(C2CCC(=O)NC2=O)C3=O)CC1 (some centres unmarked) [SIAIS561133]', 5.78);

I'm hoping you can list pIC50 for every compound here, please.
1. COc1cc2nc(C)nc(N[C@H](C)c3cc(N)cc(C(F)(F)F)c3)c2cc1OC1CCN(C(=O)CCCCSc2cccc3c2CN(C2CCC(=O)NC2=O)C3=O)CC1 (some centres unmarked) [SIAIS561134]
2. COc1cc2nc(C)nc(N[C@H](C)c3cc(N)cc(C(F)(F)F)c3)c2cc1OC1CCN(C(=O)CCCCCCCCSc2cccc3c2CN(C2CCC(=O)NC2=O)C3=O)CC1 (some centres unmarked) [SIAIS562080]
3. COc1cc2nc(C)nc(N[C@H](C)c3cc(N)cc(C(F)(F)F)c3)c2cc1O[C@H]1CCN(C(=O)CCCCCCCCCCSc2cccc3c2CN(C2CCC(=O)NC2=O)C3=O)C1 (some centres unmarked) [SIAIS561098]
4. COc1cc2nc(C)nc(N[C@H](C)c3cc(N)cc(C(F)(F)F)c3)c2cc1O[C@H]1CCN(C(=O)CCCCCCSc2cccc3c2CN(C2CCC(=O)NC2=O)C3=O)C1 (some centres unmarked) [SIAIS561095]
5. COc1cc2nc(C)nc(N[C@H](C)c3cc(N)cc(C(F)(F)F)c3)c2cc1OC1CCN(C(=O)CCCCCCCCCSc2cccc3c2CN(C2CCC(=O)NC2=O)C3=O)CC1 (some centres unmarked) [SIAIS561137]
6. COc1cc2nc(C)nc(N[C@H](C)c3cc(N)cc(C(F)(F)F)c3)c2cc1O[C@H]1CCN(C(=O)CCCCCCCSc2cccc3c2CN(C2CCC(=O)NC2=O)C3=O)C1 (some centres unmarked) [SIAIS561096]
7. COc1cc2nc(C)nc(N[C@H](C)c3cc(N)cc(C(F)(F)F)c3)c2cc1OC1CCN(C(=O)CCCCCCCCCCCSc2cccc3c2CN(C2CCC(=O)NC2=O)C3=O)CC1 (some centres unmarked) [SIAIS562083]

[5.44, 5.31, 4.94, 5.28, 5.51, 5.81, 5.38]
